- targetEntity: MAGL (Mus musculus, UniProt O35678)
- Construct: Proteomes (mouse brain membrane fraction or cell lysates); from tissue; host or cells: mouse brain membrane fraction (or cell lysates, not specified)
- Sequence (O35678 whole entry): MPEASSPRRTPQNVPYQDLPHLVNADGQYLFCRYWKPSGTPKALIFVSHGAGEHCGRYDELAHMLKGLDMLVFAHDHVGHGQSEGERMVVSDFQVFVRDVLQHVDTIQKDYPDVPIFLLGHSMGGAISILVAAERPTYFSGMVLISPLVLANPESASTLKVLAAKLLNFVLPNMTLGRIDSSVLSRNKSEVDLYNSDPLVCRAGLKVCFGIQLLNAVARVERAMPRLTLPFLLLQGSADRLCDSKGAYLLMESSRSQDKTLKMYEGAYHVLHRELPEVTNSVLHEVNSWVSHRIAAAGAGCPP
- assayText: In vitro competitive activity-based protein profiling (gel-based, FP-Rh or HT-01 probe)
- Type: biochemical
- conditionDetails: 10 μM inhibitor
outcomeMeasure: inhibition at 10 µM

Known results for molecules:
molecule | targetEntity | inhibition at 10 µM
CN1CCN(C(=O)n2cc(Cl)cn2)CC1 [Example 185] | MAGL (Mus musculus, UniProt O35678) | 25 to 75%
Cc1cnn(C(=O)N2CCN(Cc3ccc4ccccc4c3)CC2)c1 [Example 11] | MAGL (Mus musculus, UniProt O35678) | > 75%
CC(C)(C)OC(=O)N1CCN(C(=O)n2cccn2)CC1 [Example 4] | MAGL (Mus musculus, UniProt O35678) | 25 to 75%
CN1CCCN(C(=O)n2cc(C(F)(F)F)cn2)CC1 [Example 156] | MAGL (Mus musculus, UniProt O35678) | < 25%
O=C(N1CCN(c2cccc(N3CCCC3)c2)CC1)n1cc(C(F)(F)F)cn1 [Example 240] | MAGL (Mus musculus, UniProt O35678) | > 75%
Cc1cc(-c2ccccc2)ccc1CN1CCN(C(=O)n2cc(-c3ccccc3)cn2)CC1 [Example 65] | MAGL (Mus musculus, UniProt O35678) | > 75%
O=C(N1CCN(Cc2ccc3ccccc3c2)CC1)n1cc(Br)cn1 [Example 13] | MAGL (Mus musculus, UniProt O35678) | > 75%
O=C(c1cnn(C(=O)N2CCN(Cc3ccc4c(c3)OCO4)CC2)c1)N1CCCC1 [Example 78] | MAGL (Mus musculus, UniProt O35678) | > 75%
COc1cc(-c2ccccc2)ccc1CN1CCN(C(=O)n2cc(Cl)cn2)CC1 [Example 141] | MAGL (Mus musculus, UniProt O35678) | > 75%
Cc1cc(-c2ccccc2)ccc1CN1CCN(C(=O)n2cc(C(=O)N3CCCCC3)cn2)CC1 [Example 76] | MAGL (Mus musculus, UniProt O35678) | > 75%

### Prompt Consider the molecule CCN(Cc1ccc(OC)cc1)C(=O)n1cc(Cl)cn1 [Example 129] and give its measured inhibition at 10 µM.
### Response > 75%

### Prompt Consider the molecule O=C(N1CCN(c2ccccc2N2CCCC2)CC1)n1cc(C(F)(F)F)cn1 [Example 239] and give its measured inhibition at 10 µM.
### Response > 75%

### Prompt Consider the molecule Cc1cc(-c2ccccc2)ccc1CN1CCN(C(=O)n2cc(C(F)(F)F)cn2)CC1 [Example 142] and give its measured inhibition at 10 µM.
### Response > 75%

====

- targetEntity: FAAH (Mus musculus)
- Construct: Proteomes (mouse brain membrane fraction or cell lysates); from tissue; host or cells: mouse brain membrane fraction (or cell lysates, not specified)
- Sequence (O08914 whole entry): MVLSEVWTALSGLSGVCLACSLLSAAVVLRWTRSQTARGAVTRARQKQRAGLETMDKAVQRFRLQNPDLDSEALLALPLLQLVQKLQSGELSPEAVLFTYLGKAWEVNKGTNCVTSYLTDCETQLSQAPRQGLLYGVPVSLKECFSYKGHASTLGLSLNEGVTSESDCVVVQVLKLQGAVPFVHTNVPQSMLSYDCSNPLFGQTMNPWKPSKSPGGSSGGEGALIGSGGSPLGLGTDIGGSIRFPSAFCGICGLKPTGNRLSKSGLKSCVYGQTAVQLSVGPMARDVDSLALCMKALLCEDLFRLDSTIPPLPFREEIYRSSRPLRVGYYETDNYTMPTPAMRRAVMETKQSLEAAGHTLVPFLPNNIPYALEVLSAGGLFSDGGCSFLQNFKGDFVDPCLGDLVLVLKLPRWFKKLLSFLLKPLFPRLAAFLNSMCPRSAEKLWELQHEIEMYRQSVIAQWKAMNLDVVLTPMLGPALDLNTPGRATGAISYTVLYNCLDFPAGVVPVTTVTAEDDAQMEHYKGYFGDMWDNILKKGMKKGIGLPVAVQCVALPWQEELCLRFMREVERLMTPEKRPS
- assayText: In vitro competitive activity-based protein profiling (gel-based, FP-Rh or HT-01 probe)
- Type: biochemical
- conditionDetails: 10 μM inhibitor; read-out: % Inhibition at 10 μM, B = FAAH
Listing of entries alongside the reported inhibition at 10 µM.

compound | inhibition at 10 µM
CCN(Cc1cccc(C)c1)C(=O)n1cc(Cl)cn1 [Example 135] | > 75%

### Prompt Consider the compound N#Cc1cnn(C(=O)NCCCCCc2ccccc2)c1 [Example 39] and give its measured inhibition at 10 µM.
### Response > 75%

====

- targetEntity: ABHD6 (Mus musculus)
- Construct: Proteomes (mouse brain membrane fraction or cell lysates); from tissue; host or cells: mouse brain membrane fraction (or cell lysates, not specified)
- Sequence (Q8R2Y0 whole entry): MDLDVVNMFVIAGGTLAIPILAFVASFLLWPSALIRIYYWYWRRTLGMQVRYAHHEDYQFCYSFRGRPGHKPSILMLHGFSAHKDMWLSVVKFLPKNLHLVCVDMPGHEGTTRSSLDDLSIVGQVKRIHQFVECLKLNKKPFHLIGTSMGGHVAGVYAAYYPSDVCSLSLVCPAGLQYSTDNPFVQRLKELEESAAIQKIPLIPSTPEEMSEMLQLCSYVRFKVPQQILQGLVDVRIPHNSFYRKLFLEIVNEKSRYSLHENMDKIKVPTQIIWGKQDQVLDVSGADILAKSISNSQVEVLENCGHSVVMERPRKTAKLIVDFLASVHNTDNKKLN
- assayText: In vitro competitive activity-based protein profiling (gel-based, FP-Rh or HT-01 probe)
- Type: biochemical
- conditionDetails: 1 μM inhibitor; read-out: % Inhibition at 1 μM, C = ABHD6
- Description: In Vitro Competitive Activity-Based Protein Profiling. Proteomes (mouse brain membrane fraction or cell lysates) (50 μL, 1.0 mg/mL total protein concentration) were preincubated with varying concentrations of inhibitors at 37° C. […] Following gel imaging, serine hydrolase activity was determined by measuring fluorescent intensity of gel bands corresponding to MAGL, ABHD6, FAAH, and PLA2G7 using ImageJ 1.43u software.
outcomeMeasure: inhibition at 1 µM

Known results for compounds:
smi | inhibition at 1 µM
O=C(N1CCN(c2ccccc2Cl)CC1)n1cc(C(F)(F)F)cn1 | > 75%
O=C(N1CCN(Cc2ccc(C(F)(F)F)cc2N2CCCC2)CC1)n1cc(F)cn1 | > 75%
CN(Cc1cccc(-c2ccncc2)c1)C(=O)n1cc(Cl)cn1 | > 75%
O=C(N1CCN(c2ccccc2)CC1)n1cc(C(F)(F)F)cn1 | > 75%
CC(=O)N(C)CCN(C)C(=O)n1cc(C(F)(F)F)cn1 | < 25%
CCN(Cc1cccc(Cl)c1)C(=O)n1cc(Cl)cn1 | < 25%

### Prompt Value wanted: inhibition at 1 µM (ABHD6 (Mus musculus)) of entry CCN(Cc1ccc(Cl)cc1)C(=O)n1cc(Cl)cn1
### Response < 25%

### Prompt Value wanted: inhibition at 1 µM (ABHD6 (Mus musculus)) of entry O=C(c1cnn(C(=O)N2CCN(C(c3ccc(Cl)cc3)c3ccc(Cl)cc3)CC2)c1)N1CCCCC1
### Response > 75%

### Prompt Value wanted: inhibition at 1 µM (ABHD6 (Mus musculus)) of entry CN1CCN(C(=O)n2cc(C(F)(F)F)cn2)CC1
### Response > 75%

### Prompt Value wanted: inhibition at 1 µM (ABHD6 (Mus musculus)) of entry O=C(N1CCN(Cc2ccc3c(c2)OCO3)CC1)n1cc(-c2ccccc2)cn1
### Response > 75%

### Prompt Value wanted: inhibition at 1 µM (ABHD6 (Mus musculus)) of entry O=C(c1ccccc1)N1CCCN(C(=O)n2cc(Cl)cn2)CC1
### Response 25 to 75%

====

- targetEntity: ABHD6 (Mus musculus)
- Construct: Proteomes (mouse brain membrane fraction or cell lysates); from tissue; host or cells: mouse brain membrane fraction (or cell lysates, not specified)
- assayText: In vitro competitive activity-based protein profiling (gel-based, FP-Rh or HT-01 probe)
- Format: biochemical
- conditionDetails: 1 μM inhibitor; gel-based competitive ABPP; read-out: % Inhibition at 1 μM, C = ABHD6
Listing of entries alongside the reported inhibition at 1 µM.

compound | val
CCN(Cc1ccc(N2CCOCC2)cc1)C(=O)n1cc(C)cn1 [Example 265] | < 25%

### Prompt Consider the compound COc1cccc(CN2CCN(C(=O)n3cc(C(F)(F)F)cn3)CC2)c1 [Example 271] and give its measured inhibition at 1 µM.
### Response > 75%

### Prompt Consider the compound N#Cc1cnn(C(=O)N2CCCN(Cc3ccc(Oc4ccccc4)cc3)CC2)c1 [Example 301] and give its measured inhibition at 1 µM.
### Response > 75%

### Prompt Consider the compound N#Cc1cnn(C(=O)N2CCCN(Cc3cccc(Oc4ccccc4)c3)CC2)c1 [Example 299] and give its measured inhibition at 1 µM.
### Response > 75%

====

- targetEntity: MAGL (Mus musculus)
- Construct: Proteomes (mouse brain membrane fraction or cell lysates); from tissue; host or cells: mouse brain membrane fraction (or cell lysates, not specified)
- assayText: In vitro competitive activity-based protein profiling (gel-based, FP-Rh or HT-01 probe)
- Assay type: biochemical
- conditionDetails: mouse brain membrane fraction or cell lysates, 30 min preincubation at 37° C.; read-out: Mouse (IC50 value, nM) MAGL
outcomeMeasure: IC50

compound | IC50
CCN(Cc1cccc(Cl)c1)C(=O)n1cc(C(F)(F)F)cn1 [Example 244] | > 1000 nM

### Prompt Consider the compound NC(=O)c1cnn(C(=O)N2CCN(Cc3cccc(Oc4ccccc4)c3)CC2)c1 [Example 286] and give its measured IC50.
### Response < 100 nM

### Prompt Consider the compound O=C(c1cnn(C(=O)N2CCN(C(c3ccc(Cl)cc3)c3ccc(Cl)cc3)CC2)c1)N1CCOCC1 [Example 67] and give its measured IC50.
### Response 100 to 1000 nM

### Prompt Consider the compound O=C(N1CCN(Cc2ccccc2N2CCCC2)CC1)n1cc(C(F)(F)F)cn1 [Example 280] and give its measured IC50.
### Response < 100 nM

### Prompt Consider the compound NC(=O)c1cnn(C(=O)N2CCN(Cc3ccc(Cl)cc3)CC2)c1 [Example 204] and give its measured IC50.
### Response < 100 nM

### Prompt Consider the compound CNC(=O)c1cnn(C(=O)N2CCN(Cc3cccc(Oc4ccccc4)c3)CC2)c1 [Example 287] and give its measured IC50.
### Response < 100 nM

### Prompt Consider the compound CCN(Cc1cccc(C)c1)C(=O)n1cc(Cl)cn1 [Example 135] and give its measured IC50.
### Response > 1000 nM

### Prompt Consider the compound Cc1cnn(C(=O)N2CCN(Cc3c(N4CCCC4)cccc3C(F)(F)F)CC2)c1 [Example 111] and give its measured IC50.
### Response 100 to 1000 nM

### Prompt Consider the compound N#Cc1cnn(C(=O)N2CCCN(Cc3ccccc3)CC2)c1 [Example 179] and give its measured IC50.
### Response > 1000 nM
